# ASSAY INFO: Cell Viability - H-4-II-E (AID 543);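 note: cells exposed to compound for 40 hours; nearly all actives have a fitted effect of over 35% in size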
# MEASUREMENT SETUP: H-4-II-E rat hepatoma viability; series mostly up to 92.2 µM
Records with an inconclusive call do not appear. Calls of active or inactive are those of the source. Calls come from the whole dose curve; as a rule, active = well fitted cell-killing curve with a large enough effect; inconclusive = small, poorly fitted or top-dose-only effect; inactive = flat fitted curve, though single readings scatter.
// allowed return values: YES (active), NO (inactive)

Worked examples, 5 compounds total:
[
  {
    "COMPOUND": "C[C@H](CCC(=O)O)[C@H]1CC[C@H]2[C@@H]3[C@H](O)C[C@@H]4C[C@H](O)CC[C@]4(C)[C@H]3C[C@H](O)[C@]12C",
    "CLASS LABEL": "NO"
  },
  {
    "COMPOUND": "CC/C=C\\C/C=C\\C/C=C\\CCCCCCCC(=O)O",
    "CLASS LABEL": "NO"
  },
  {
    "COMPOUND": "CC1=CCC2CC1C2(C)C (stereo not given)",
    "CLASS LABEL": "NO"
  },
  {
    "COMPOUND": "Nc1nccs1",
    "CLASS LABEL": "NO"
  },
  {
    "COMPOUND": "Cc1ncc[nH]1",
    "CLASS LABEL": "NO"
  }
]

Status in this test for Cc1ccc(S(=O)(=O)O)cc1C ?
NO

Status in this test for CC(C)O ?
NO

Status in this test for Nc1ncnc2c1ncn2[C@H]1CC[C@@H](CO)O1 ?
NO

Status in this test for NC(N)=O ?
NO

Status in this test for C=C1C(CCl)(CCl)C2(Cl)C(Cl)C(Cl)C1(Cl)C2(Cl)Cl (stereo not given) ?
YES

Status in this test for [O-][N+](=Nc1ccccc1)c1ccccc1 ?
NO

Status in this test for O=c1n(CC2CO2)c(=O)n(CC2CO2)c(=O)n1CC1CO1 (stereo not given) ?
YES
